Hi there, I'd appreciate the recorded ELISA_avg for every entry that follows.
- target-desc: T1, recombinant human CD123-Fc (human, UniProt P26951 19-305)
- T1 construct: not shown: Fc part of CD123-Fc
- T1 sequence: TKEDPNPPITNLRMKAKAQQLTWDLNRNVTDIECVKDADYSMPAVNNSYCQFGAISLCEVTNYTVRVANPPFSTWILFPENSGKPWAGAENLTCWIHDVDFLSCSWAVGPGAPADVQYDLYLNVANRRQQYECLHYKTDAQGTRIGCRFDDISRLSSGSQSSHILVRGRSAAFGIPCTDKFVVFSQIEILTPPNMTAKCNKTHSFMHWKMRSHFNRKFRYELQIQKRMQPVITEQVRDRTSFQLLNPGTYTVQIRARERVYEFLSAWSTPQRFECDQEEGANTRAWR
- test-protocol: phage ELISA, captured CD123-Fc
- Source text: Individual colonies containing phagemid from BCMA panning output were picked and phage were rescued in 96-well format using VCSM13 helper phage following standard protocols. […] Binding was detected using an HRP-conjugated anti-M13 antibody and the ELISA ratio for each sequence is reported as the absorbance at 450 nm for target (i.e., BCMA-Fc, CD123-Fc, AFP, or AFP123) divided by that for IgG1-Fc averaged across all screened wells containing that clone.
Report the figure in ratio A450 target/IgG1-Fc without appending any unit label.

*Q* ELISA_avg lookup needed for SEQ ID NO: 534 (designed binder, D domain, on phage) MGSWAEFKQRLAAIKTRLEALGGSEAELAAFEWEIVAFFSELFAYKGKGNPEVEALRDEAIAIETELVAYRHN , thanks.
*A* 3.6

*Q* I have this binder here, SEQ ID NO: 606 (designed binder, D domain, on phage) MGSWWEFEIRLDAIDERLWALGGSEAELAWFEQSIAFFENDLQVYKGKGNPEVEALRWEANAIIEELFAYRHN , and I need its recorded ELISA_avg.
*A* 3.2

*Q* Look at this binder and give its reported ELISA_avg. SEQ ID NO: 403 (designed binder, D domain, on phage) MGSWSEFNMRLDAIYERLTALGGSEAELAAFEKEIAAFESELQAYKGKGNPEVEWLRHSAALIRLELQAYRHN
*A* 11.4

*Q* Look up ELISA_avg for this binder: SEQ ID NO: 516 (designed binder, D domain, on phage) MGSWTWFKDNLAWIKEDLEALGGSEAELAWFELEIASFETALQDYKGKGNPEVEALRKEAAAIRDELQAYRHN
*A* 6.9

*Q* Look up ELISA_avg: SEQ ID NO: 514 (designed binder, D domain, on phage) MGSWIWFKDWLADIKDLLEALGGSEAELAEFEYDIALFEDQLQAYKGKGNPEVEALRKEAAAIRDELQAYRHN
*A* 7.3

*Q* Look up ELISA_avg: SEQ ID NO: 324 (designed binder, D domain, on phage) MGSWYEFVIRLEAIEDRLWALGGSEAELAAFEKEIAAFESELQAYKGKGNPEVEVLRWYAADIRHELQAYRHN
*A* 6.4

*Q* Item under review: SEQ ID NO: 603 (designed binder, D domain, on phage) MGSWVEFMDRLEAIEERLSALGGSEAELAFFEWEIAEFEEHLQVYKGKGNPEVEALEWEALAITEELAAYRHN . Reported ELISA_avg?
*A* 4

*Q* # query: ELISA_avg of entry SEQ ID NO: 499 (designed binder, D domain, on phage) MGSWYQFKHDLADIKYGLEALGGSEAELAWFEDDIADFELDLQYYKGKGNPEVEALRKEAAAIRDELQAYRHN
*A* 4.7

*Q* State the recorded ELISA_avg for this entry: SEQ ID NO: 439 (designed binder, D domain, on phage) MGSWQWFKDDLAYIKETLEALGGSEAELALFEDMIADFEFELQWYKGKGNPEVEALRKEAAAIRDELQAYRHN
*A* 6.3

*Q* For the binder shown here, SEQ ID NO: 475 (designed binder, D domain, on phage) MGSWSWFKEDLAEIKMELEALGGSEAELAYFEWYIAEFEFQLQHYKGKGNPEVEALRKEAAAIRDELQAYRHN , give the reported ELISA_avg.
*A* 4.8
